target: recombinant AplaCSP4 (Agrilus planipennis chemosensory protein 4) (Agrilus planipennis, UniProt A0A1W4XLL0)
Sequence (A0A1W4XLL0 entry or part of it): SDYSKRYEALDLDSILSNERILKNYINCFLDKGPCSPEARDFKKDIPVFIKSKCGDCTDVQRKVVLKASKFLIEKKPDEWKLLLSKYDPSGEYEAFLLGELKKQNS
test_name: biochemical
Format: binding
reported_endpoint: Kd (µM)
Provide only the numeric value, understood in µM.

get_value(item= CC(=O)/C=C/C1=C(C)CCCC1(C)C [β-Ionone] , readout=Kd) returns 4.23

----------
target: recombinant AplaCSP4 (Agrilus planipennis chemosensory protein 4) (Agrilus planipennis)
test_name: biochemical
Assay type: binding
experimental_conditions: pH 7.4, read-out: Competitive binding capability(%), ligand concentration 10 μM; three replicate columns; 100 at 0 μM
Field: activity at 10 µM. Provide a value for each of the compounds that follow.
Your answer should be a plain number; it is taken to be in %.

Entry CC(=O)/C=C/C1=C(C)CCCC1(C)C , activity at 10 µM reported as 38.5

Record CCCCCCCCCC . Reported activity at 10 µM: 39.9

For reference, reported activity at 10 µM for CCCCCCCC stands at 38.2

activity at 10 µM for CCCCCCCCCCCC is 26.7
